TEST_METHOD_NOTES: Stability of the ginsenosides in rat plasma (QC samples)
Format: in vitro ADME
CONDITIONS: extracted high QC (911.4 Rb1, 400.0 Rb2, 312.2 Rd, 630.8 Re ng/mL); autosampler 4°C for 12 h
# Recovery (%) Postpreparation annotations
Give the quantity in %, number only.

Reference set (2 entries):
line_notation=CC(C)=CCC[C@](C)(O[C@@H]1O[C@H](CO[C@@H]2O[C@H](CO)[C@@H](O)[C@H](O)[C@H]2O)[C@@H](O)[C@H](O)[C@H]1O)[C@H]1CC[C@]2(C)[C@@H]1[C@H](O)C[C@@H]1[C@@]3(C)CC[C@H](O[C@@H]4O[C@H](CO)[C@@H](O)[C@H](O)[C@H]4O[C@@H]4O[C@H](CO)[C@@H](O)[C@H](O)[C@H]4O)C(C)(C)[C@@H]3CC[C@]12C endpoint_label="Recovery (%) Postpreparation" test_result=96.10
line_notation=CC(C)=CCC[C@](C)(O[C@@H]1O[C@H](CO)[C@@H](O)[C@H](O)[C@H]1O)[C@H]1CC[C@]2(C)[C@@H]1[C@H](O)C[C@@H]1[C@@]3(C)CC[C@H](O[C@@H]4O[C@H](CO)[C@@H](O)[C@H](O)[C@H]4O[C@@H]4O[C@H](CO)[C@@H](O)[C@H](O)[C@H]4O)C(C)(C)[C@@H]3CC[C@]12C endpoint_label="Recovery (%) Postpreparation" test_result=94.81

Then there is this molecule:
Looking for the measured Recovery (%) Postpreparation of `CC(C)=CCC[C@](C)(O[C@@H]1O[C@H](CO)[C@@H](O)[C@H](O)[C@H]1O)[C@H]1CC[C@]2(C)[C@@H]1[C@H](O)C[C@@H]1[C@@]3(C)CC[C@H](O)C(C)(C)[C@@H]3[C@@H](O[C@@H]3O[C@H](CO)[C@@H](O)[C@H](O)[C@H]3O[C@@H]3O[C@@H](C)[C@H](O)[C@@H](O)[C@H]3O)C[C@]12C` , can you help? 102.50
